Experiment: Stability determination of crystal forms (HPLC)
Format: physicochemical
Conditions: HPLC detection results

compound	stability (in words)
C=CC(=O)NC1CCOCC1Nc1ncc2c(n1)-c1cc(C)cnc1N(c1c(Cl)c(OC)cc(OC)c1Cl)C2.O=C(O)C=CC(=O)O (centres unmarked) [Maleate crystal form 2]	poor stability
C=CC(=O)N[C@H]1CCOC[C@H]1Nc1ncc2c(n1)-c1cc(C)cnc1N(c1c(Cl)c(OC)cc(OC)c1Cl)C2 [Amorphous form of the compound represented by Formula I]	poor stability

* * *

Experiment: Hygroscopicity determination by dynamic vapor sorption (DVS)
Assay type: physicochemical
Conditions: DVS, 0% RH to 80% RH
property-measured: Weight Gain for Vapor Absorption (%)
Hi! Could you send only the number? It should be in %, unit omitted.

Reported Weight Gain for Vapor Absorption of C=CC(=O)N[C@H]1CCOC[C@H]1Nc1ncc2c(n1)-c1cc(C)cnc1N(c1c(Cl)c(OC)cc(OC)c1Cl)C2 [Amorphous form of the compound represented by Formula I] : 6.53

# Weight Gain for Vapor Absorption of C=CC(=O)NC1CCOCC1Nc1ncc2c(n1)-c1cc(C)cnc1N(c1c(Cl)c(OC)cc(OC)c1Cl)C2.O=C(O)C(O)C(O)C(=O)O [L-tartrate crystal form 1] = 0.07

# Weight Gain for Vapor Absorption (compound: C=CC(=O)N[C@H]1CCOC[C@H]1Nc1ncc2c(n1)-c1cc(C)cnc1N(c1c(Cl)c(OC)cc(OC)c1Cl)C2 [Crystal form A] ) is 0.03

# compound C=CC(=O)N[C@H]1CCOC[C@H]1Nc1ncc2c(n1)-c1cc(C)cnc1N(c1c(Cl)c(OC)cc(OC)c1Cl)C2 [Phosphate crystal form 1] ; its Weight Gain for Vapor Absorption = 0.19

The recorded Weight Gain for Vapor Absorption for entry C=CC(=O)NC1CCOCC1Nc1ncc2c(n1)-c1cc(C)cnc1N(c1c(Cl)c(OC)cc(OC)c1Cl)C2.O=C(O)C=CC(=O)O (centres unmarked) [Maleate crystal form 2] equals 6.64

* * *

Test: Hygroscopicity determination by dynamic vapor sorption (DVS)
Format: physicochemical
Conditions: under the test conditions

compound	hygroscopicity (in words)
C=CC(=O)N[C@H]1CCOC[C@H]1Nc1ncc2c(n1)-c1cc(C)cnc1N(c1c(Cl)c(OC)cc(OC)c1Cl)C2 [Amorphous form of the compound represented by Formula I]	hygroscopic
C=CC(=O)NC1CCOCC1Nc1ncc2c(n1)-c1cc(C)cnc1N(c1c(Cl)c(OC)cc(OC)c1Cl)C2.O=C(O)C=CC(=O)O (stereo not shown) [Maleate crystal form 2]	hygroscopic

* * *

Assay: Pharmacokinetic test of crystal forms in SD rats, oral
Type: in vivo
Settings: male, rat, plasma, 50 mg/kg, suspension in 0.5% CMC-Na, read-out: Cmax
property-measured: Cmax (ng/mL)
The answer is to be given in ng/mL; state only the numeric part.

get_value(item= C=CC(=O)N[C@H]1CCOC[C@H]1Nc1ncc2c(n1)-c1cc(C)cnc1N(c1c(Cl)c(OC)cc(OC)c1Cl)C2 [Phosphate crystal form 1] , readout=Cmax) returns 1140

* * *

Assay: Stability determination of crystal forms (HPLC)
Format: physicochemical
Conditions: day 0
Method: Samples and experimental preparation: The amorphous form of the compound represented by Formula I and the crystal form A, maleate crystal form 1, maleate crystal form 2, phosphate crystal form 1 and adipate crystal form 1 of the compound represented by Formula I in appropriate amounts were tested for stability. Samples were taken at different time points separately for HPLC. The packages were polyester/aluminum/polyamide/polyethylene pharmaceutical composite films and bags.
Task for the reader: assign each of the following molecules its reported Changed Maximum Single Impurity.
Note to self: number, then unit, no commentary.

// sample C=CC(=O)NC1CCOCC1Nc1ncc2c(n1)-c1cc(C)cnc1N(c1c(Cl)c(OC)cc(OC)c1Cl)C2.O=C(O)C=CC(=O)O (stereo not shown) [Maleate crystal form 1] , its Changed Maximum Single Impurity was 0.2%

Value of measured Changed Maximum Single Impurity for the entry C=CC(=O)N[C@H]1CCOC[C@H]1Nc1ncc2c(n1)-c1cc(C)cnc1N(c1c(Cl)c(OC)cc(OC)c1Cl)C2 [Phosphate crystal form 1] : 0.15%

// C=CC(=O)NC1CCOCC1Nc1ncc2c(n1)-c1cc(C)cnc1N(c1c(Cl)c(OC)cc(OC)c1Cl)C2.O=C(O)C=CC(=O)O (stereo not shown) [Maleate crystal form 2] : Changed Maximum Single Impurity value = 0.29%

// sample C=CC(=O)N[C@H]1CCOC[C@H]1Nc1ncc2c(n1)-c1cc(C)cnc1N(c1c(Cl)c(OC)cc(OC)c1Cl)C2 [Amorphous form of the compound represented by Formula I] , its Changed Maximum Single Impurity was 0.41%
